B1: TPR t1 (parent)
chain: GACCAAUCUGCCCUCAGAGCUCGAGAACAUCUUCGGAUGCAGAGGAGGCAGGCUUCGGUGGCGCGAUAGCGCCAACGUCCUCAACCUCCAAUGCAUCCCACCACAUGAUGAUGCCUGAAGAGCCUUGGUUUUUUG

Variants of: B1
Assay: polymerase ribozyme fitness, log enrichment relative to wild type (log ratio); higher = more active; in vitro selection for triplet polymerase activity
observation_type: polymerase ribozyme fitness (log ratio)

variant_notation | test_result
G63A C64U C73G C80U G93A C97U G117U | -6.14
C15U G42U U87G C88A C101U G113U | -5.85
C62A C98U C123A | -2.16

Query string: State the recorded polymerase ribozyme fitness (log ratio) for this entry: C76U C123A
Result string: 0.138
